Data origin, for the record: ChEMBL document CHEMBL4627345

Test system: Rattus norvegicus
Assay: Antiinflammatory activity in Wistar rat assessed as inhibition of carrageenan-induced paw edema formation at 100 mg/kg, po administered 1 hr before carrageenan stimulation and measured after up to 6 hrs relative to control
Type: functional
Endpoint name: inhibition in vivo at 100 mg/kg (%)
Answer format: numeric, % implied, no suffix.

Q: Give inhibition in vivo at 100 mg/kg (Rattus norvegicus) of the following molecule: O=[N+]([O-])c1ccc(-c2nc3ccccc3n2-c2ccc([N+](=O)[O-])cc2)cc1
A: 42

Q: Give inhibition in vivo at 100 mg/kg (Rattus norvegicus) of the following molecule: O=[N+]([O-])c1ccc(-n2c(-c3ccc(Br)cc3)nc3ccccc32)cc1
A: 42

Q: Give inhibition in vivo at 100 mg/kg (Rattus norvegicus) of the following molecule: Cc1ccc(-c2ncc(Cl)cc2-c2ccc(S(C)(=O)=O)cc2)cn1 [ETORICOXIB]
A: 35

Q: Give inhibition in vivo at 100 mg/kg (Rattus norvegicus) of the following molecule: CC(C)Cc1ccc(C(C)C(=O)O)cc1 (centres undefined) [IBUPROFEN]
A: 42

###

Target: Nitric oxide synthase, inducible (Mus musculus)
Experiment: Inhibition of iNOS in mouse macrophages assessed as reduction in LPS-induced nitric oxide production at 100 uM incubated for overnight by griess assay relative to control
Each entry gets 0 (no) if its inhibition stays under 50%, and 1 (yes) if its inhibition is 50% or above.

Q: Does the reported inhibition for N#Cc1ccc(-c2nc3ccccc3n2-c2ccc([N+](=O)[O-])cc2)cc1 fall at or above the 50% mark?
A: 0 (no)

Q: Does the reported inhibition for Cc1ccc(-c2ncc(Cl)cc2-c2ccc(S(C)(=O)=O)cc2)cn1 fall at or above the 50% mark?
A: 1 (yes)

Q: Does the reported inhibition for CC(C)Cc1ccc(C(C)C(=O)O)cc1 (centres undefined) fall at or above the 50% mark?
A: 1 (yes)

Q: Does the reported inhibition for Nc1ccc(-n2c(-c3ccc(Cl)cc3)nc3ccccc32)cc1 fall at or above the 50% mark?
A: 1 (yes)

Q: Does the reported inhibition for Nc1ccc(-n2c(-c3ccc(Br)cc3)nc3ccccc32)cc1 fall at or above the 50% mark?
A: 1 (yes)

Q: Does the reported inhibition for O=[N+]([O-])c1ccc(-c2nc3ccccc3n2-c2ccc([N+](=O)[O-])cc2)cc1 fall at or above the 50% mark?
A: 0 (no)

Q: Does the reported inhibition for O=[N+]([O-])c1ccc(-n2c(-c3ccc(Cl)cc3)nc3ccccc32)cc1 fall at or above the 50% mark?
A: 1 (yes)

Q: Does the reported inhibition for CC(=O)Nc1ccc(-n2c(-c3ccc(Br)cc3)nc3ccccc32)cc1 fall at or above the 50% mark?
A: 1 (yes)

Q: Does the reported inhibition for CC(=O)Nc1ccc(-n2c(-c3ccc(Cl)cc3)nc3ccccc32)cc1 fall at or above the 50% mark?
A: 1 (yes)

Q: Does the reported inhibition for O=C(O)c1ccc(-c2nc3ccccc3n2-c2ccc([N+](=O)[O-])cc2)cc1 fall at or above the 50% mark?
A: 0 (no)

Q: Does the reported inhibition for O=[N+]([O-])c1ccc(-n2c(-c3ccccc3)nc3ccccc32)cc1 fall at or above the 50% mark?
A: 0 (no)

Q: Does the reported inhibition for Nc1ccc(-c2nc3ccccc3n2-c2ccc(N)cc2)cc1 fall at or above the 50% mark?
A: 0 (no)

Q: Does the reported inhibition for CC(=O)Nc1ccc(-c2nc3ccccc3n2-c2ccc(NC(C)=O)cc2)cc1 fall at or above the 50% mark?
A: 0 (no)

Q: Does the reported inhibition for O=[N+]([O-])c1ccc(-n2c(-c3ccc(Br)cc3)nc3ccccc32)cc1 fall at or above the 50% mark?
A: 0 (no)
